Collected literature values of pKi measured for Transporter (Rattus norvegicus, UniProt Q63380).
pKi: −log10 of the molar value.
Given measured pKi, output satisfied if it is greater than or equal to 7 and not satisfied if not.

Observe how each entry below is paired with its result.
compound | assay.system | answer.label
Ic1cccc(O[C@@H](c2ccccc2)[C@H]2CNCCO2)c1 | Transporter (Rattus norvegicus, UniProt Q63380) | not satisfied
Oc1ccc(CN[C@@H]2CO[C@H](C(c3ccccc3)c3ccccc3)C2)cc1 | Transporter (Rattus norvegicus, UniProt Q63380) | not satisfied

INPUT: Hi, just wondering whether Ic1ccc(O[C@@H](c2ccccc2)[C@H]2CNCCO2)cc1 shows pKi of 7 or higher.
OUTPUT: not satisfied

INPUT: Decide: pKi of CNCC[C@H](c1ccc(Cl)c(Cl)c1)c1cccc2ccccc12 >= 7?
OUTPUT: not satisfied

INPUT: Does the reported pKi for Oc1ccc(CN[C@@H]2CO[C@H](C(c3ccc(F)cc3)c3ccc(F)cc3)C[C@H]2O)cc1 fall at or above the 7 mark?
OUTPUT: satisfied

INPUT: Check if pKi >= 7 (inclusive). Item: Ic1ccccc1O[C@@H](c1ccccc1)[C@@H]1CNCCO1
OUTPUT: satisfied

INPUT: Hi team, for CNCCCC(c1ccccc1)c1ccc(OCCN2CCCC2)cc1 (stereo not given) , is the recorded pKi at or above 7?
OUTPUT: satisfied

INPUT: State whether the measured pKi reaches 7, counting equality as reaching it, for CCOc1ccccc1O[C@@H](c1ccc(I)cc1)[C@@H]1CNCCO1
OUTPUT: satisfied

INPUT: Does the reported pKi for CNCCC(c1ccccc1)c1ccc(O)c2ccc(OCCN3CCCC3)cc12 (stereo not given) fall at or above the 7 mark?
OUTPUT: satisfied

INPUT: Check the entry CNCCC[C@H](c1cccs1)c1cccc2ccccc12 : does pKi equal or exceed 7?
OUTPUT: satisfied

INPUT: Reported pKi at or above 7? Ic1ccccc1O[C@@H](c1ccccc1)[C@H]1CNCCO1
OUTPUT: satisfied

====

From various publications: Ki for Transporter (Rattus norvegicus).
Write the number in nM without appending the unit.

Please review the following examples before continuing.
smiles.data | measurement.kind | quantitative.result
CNCC[C@H](c1ccc(Cl)c(Cl)c1)c1cccc2[nH]ccc12 | Ki | 95
CNCC[C@@H](c1cccs1)c1cccc2ccccc12 | Ki | 139
CNCCC[C@@H](c1cccs1)c1cccc2ccccc12 | Ki | 109

INPUT: Fill blank: measured Ki of the compound CNCCC[C@H](c1ccc(Cl)c(Cl)c1)c1cccc2[nH]ccc12 is ____.
OUTPUT: 4840

INPUT: I would be grateful if you could share the reported Ki for CNCCC[C@@H](c1cccs1)c1cccc2[nH]ccc12 .
OUTPUT: 79.7

INPUT: Recorded Ki for Oc1ccc(CN[C@H]2CC[C@@H](Cc3ccccc3)OC2)cc1 , please?
OUTPUT: 240

INPUT: Could you tell me which Ki is on file for CNCCC[C@@H](c1ccc(Cl)c(Cl)c1)c1cccc2[nH]ccc12 ?
OUTPUT: 360

INPUT: Find the recorded Ki belonging to O=C(c1ccccc1C(F)(F)F)N(CC1CCC1)[C@H]1CCNC1 and report it.
OUTPUT: 3.9

INPUT: Fill blank: measured Ki of the compound CNCC[C@H](c1cccs1)c1cccc2ccccc12 is ____.
OUTPUT: 52.1
